// provenance: ChEMBL document CHEMBL1141640

# assayed_target: UniProt:P35364
# Sequence (P35364 whole entry): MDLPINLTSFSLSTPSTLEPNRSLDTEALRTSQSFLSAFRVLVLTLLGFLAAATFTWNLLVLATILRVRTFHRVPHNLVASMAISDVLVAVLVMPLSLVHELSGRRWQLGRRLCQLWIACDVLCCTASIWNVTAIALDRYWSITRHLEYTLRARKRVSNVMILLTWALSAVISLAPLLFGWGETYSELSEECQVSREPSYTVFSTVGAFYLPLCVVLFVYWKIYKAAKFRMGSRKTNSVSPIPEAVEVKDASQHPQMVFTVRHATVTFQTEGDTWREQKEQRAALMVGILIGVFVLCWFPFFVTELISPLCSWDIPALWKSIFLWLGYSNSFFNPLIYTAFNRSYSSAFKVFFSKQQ
measurement_label: Ki (nM)
Write the answer as a number in nM, unit excluded.

Form field: reported Ki of C[C@@H]1NC(NCC(F)F)=Nc2cccc(Cl)c21
2.9

* * *

# test_summary: Dissociation constant, pKa of the compound
# Format: physicochemical
I'd appreciate it if you could supply pKa values for the items below.
Returns: the value as a bare number; no unit string appended.

Bench note: what pKa did CC1NC(N)=Nc2ccccc21 (stereo unspecified) show?
10.5

Sample CC1NC(NCC(F)(F)F)=Nc2ccccc21 (stereo unspecified) — what was its pKa?
9.2

// returns reported pKa for input CC1NC(NCC(F)F)=Nc2ccc(Cl)c(Cl)c21 (stereo unspecified)
8.5

Report pKa for CC(C)Oc1cccc2c1N=C(NCC(F)F)NC2C (stereo unspecified) please.
10.2

I have this molecule here, COc1cccc2c1N=C(NCC(F)F)NC2C (stereo unspecified) , and I need its recorded pKa.
10.2

Which pKa value belongs to CCCNC1=Nc2ccccc2C(C)N1 (stereo unspecified) ?
10.7

Name the recorded pKa for CC1NC(NCC(F)F)=Nc2ccccc21 (stereo unspecified) .
9.7

What measured pKa goes with CCNC1=Nc2ccccc2C(C)N1 (stereo unspecified) ?
10.8

Which measured pKa value corresponds to CC1NC(NCC(F)F)=Nc2c(Cl)ccc(Cl)c21 (stereo unspecified) ?
7.8

Field request: pKa | item: CC1NC(N)=Nc2cccc(Cl)c21 (stereo unspecified)
9.9

Any idea what its pKa is? The molecule is C[C@@H]1NC(NCC(F)F)=Nc2ccc(Cl)c(Cl)c21
8.5

Item under review: CNC1=Nc2ccccc2C(C)N1 (stereo unspecified) . Reported pKa?
10.6

Looking for the measured pKa of CCCCNC1=Nc2ccccc2C(C)N1 (stereo unspecified) , can you help?
10.7

Item under review: C[C@H]1NC(NCC(F)F)=Nc2ccc(Cl)c(Cl)c21 . Reported pKa?
8.5

Any idea what pKa was measured for CC1NC(NCC(F)F)=Nc2cccc(Cl)c21 (stereo unspecified) ?
8.9

Entry under review: COc1c(Cl)ccc2c1C(C)NC(NCC(F)F)=N2 (stereo unspecified) . Reported pKa?
8.9
